# Test system: Zea mays
# experiment: Greenhouse post-emergence herbicidal activity on crop ZEAMX (corn, maize)
# Format: in vivo
# Design: key: 0 = no damage/normal growth, 100 = no emergence or complete destruction
# cond: crop ZEAMX (corn, maize), application rate 0.031 kg/ha
propertyName: Herbicidal activity
Lab note: jot down the number only; don't add units.

Here's what some known entries look like.
>>> val("CN(c1c(Cl)ccc(C2=C(O)c3ncc(F)cc3CS2(=O)=O)c1Cl)S(C)(=O)=O")
0
>>> val("CN(c1cccc(C2=C(O)c3ncccc3C(C)(C)S2(=O)=O)c1C(F)(F)F)S(C)(=O)=O")
0
>>> val("CN(c1cccc(C2=C(O)c3ncccc3CS2(=O)=O)c1C(F)(F)F)S(C)(=O)=O")
0
>>> val("CN(c1c(Cl)ccc(C2=C(O)c3ncccc3CS2(=O)=O)c1C(F)(F)F)S(C)(=O)=O")
5
>>> val("CN(c1c(Cl)ccc(C2=C(O)c3ncc(F)cc3C(C)(C)S2(=O)=O)c1Cl)S(C)(=O)=O")
0
>>> val("CN(c1cccc(C2=C(O)c3ncccc3C(C)(C)S2(=O)=O)c1S(C)(=O)=O)S(C)(=O)=O")
0
>>> val("CN(c1c(Cl)ccc(C2=C(O)c3ncccc3C(C)(C)S2(=O)=O)c1C(F)(F)F)S(C)(=O)=O")
5

Shift focus to the following entry.
input: Output measured Herbicidal activity for this item: CN(c1cccc(C2=C(O)c3ncccc3CS2(=O)=O)c1S(C)(=O)=O)S(C)(=O)=O
output: 0

* * *

Recorded measurements of pest or weed control at 63 g/ha, one per entry
# Test system: Echinocloa crus-galli
# experiment: Greenhouse post-emergence herbicidal activity, ECHCG
# Assay type: in vivo
# cond: Echinochloa crus-galli, ECHCG, 0.063 kg/ha, scale 0 to 100
The reply should contain only the number, in %.

>>> val("Cc1c(C2=C(O)c3ncccc3C(C)(C)S2(=O)=O)ccc(Cl)c1N(C)S(C)(=O)=O")
90

input: Output measured pest or weed control at 63 g/ha for this item: CCS(=O)(=O)N(C)c1c(Cl)ccc(C2=C(O)c3ncccc3CS2(=O)=O)c1Cl
output: 100

input: Output measured pest or weed control at 63 g/ha for this item: CN(c1c(Cl)ccc(C2=C(O)c3ncccc3C(C)(C)S2(=O)=O)c1Cl)S(=O)(=O)C1CC1
output: 98

input: Output measured pest or weed control at 63 g/ha for this item: CCN(c1c(Cl)ccc(C2=C(O)c3ncccc3CS2(=O)=O)c1Cl)S(C)(=O)=O
output: 95

input: Output measured pest or weed control at 63 g/ha for this item: CN(C)S(=O)(=O)Oc1c(Cl)ccc(C2=C(O)c3ncccc3CS2(=O)=O)c1Cl
output: 90

input: Output measured pest or weed control at 63 g/ha for this item: CS(=O)(=O)N(c1c(Cl)ccc(C2=C(O)c3ncccc3CS2(=O)=O)c1Cl)C1CC1
output: 85

input: Output measured pest or weed control at 63 g/ha for this item: CN(c1c(Cl)ccc(C2=C(O)c3ncccc3CS2(=O)=O)c1Cl)S(=O)(=O)C1CC1
output: 98

input: Output measured pest or weed control at 63 g/ha for this item: CN(c1ccc(Cl)c(C2=C(O)c3ncccc3CS2(=O)=O)c1Cl)S(C)(=O)=O
output: 90

input: Output measured pest or weed control at 63 g/ha for this item: CN(c1c(Cl)ccc(C2=C(O)c3ncccc3CS2(=O)=O)c1Cl)S(=O)(=O)CC1CC1
output: 100

input: Output measured pest or weed control at 63 g/ha for this item: CN(c1cccc(C2=C(O)c3ncccc3CS2(=O)=O)c1Cl)S(C)(=O)=O
output: 90

* * *

# System: Oryza sativa
# experiment: Greenhouse post-emergence herbicidal activity on crop ORYSA (rice)
# Type: in vivo
# cond: ORYSA (rice, crop), 0.125 kg/ha, scale 0 to 100
Please use label 1 whenever Herbicidal activity is not below 20, and label 0 whenever it is.

input: Can CN(c1cccc(C2=C(OC(=O)C(C)(C)C)c3ncccc3C(C)(C)S2(=O)=O)c1Cl)S(C)(=O)=O be said to have Herbicidal activity at or above 20?
output: label 0

* * *

# Test system: Zea mays
# experiment: Greenhouse post-emergence herbicidal activity on crop ZEAMX (corn, maize)
# Type: in vivo
# Parameters: key: 0 = no damage/normal growth, 100 = no emergence or complete destruction
# cond: crop ZEAMX (corn, maize), application rate 0.125 kg/ha
propertyName: Herbicidal activity
Lab note: jot down the number only; don't add units.

>>> val("CN(c1cccc(C2=C(O)c3ncccc3C(C)(C)S2(=O)=O)c1S(C)(=O)=O)S(C)(=O)=O")
15

input: Output measured Herbicidal activity for this item: CN(c1cccc(C2=C(O)c3ncccc3C(C)(C)S2(=O)=O)c1C(F)(F)F)S(C)(=O)=O
output: 0

input: Output measured Herbicidal activity for this item: CN(c1cccc(C2=C(O)c3ncccc3CS2(=O)=O)c1S(C)(=O)=O)S(C)(=O)=O
output: 0

input: Output measured Herbicidal activity for this item: CN(c1cccc(C2=C(O)c3ncccc3CS2(=O)=O)c1C(F)(F)F)S(C)(=O)=O
output: 0

input: Output measured Herbicidal activity for this item: CN(c1c(Cl)ccc(C2=C(O)c3ncc(F)cc3C(C)(C)S2(=O)=O)c1Cl)S(C)(=O)=O
output: 15

input: Output measured Herbicidal activity for this item: CN(c1c(Cl)ccc(C2=C(O)c3ncccc3C(C)(C)S2(=O)=O)c1C(F)(F)F)S(C)(=O)=O
output: 15

* * *

# Test system: Cirsium arvense
# experiment: Greenhouse post-emergence herbicidal activity, CIRAR
# Format: in vivo
# cond: CIRAR, 0.031 kg/ha, scale 0 to 100
# Protocol: The culture containers used were plastic flowerpots containing loamy sand with approximately 3.0% of humus as the substrate. The seeds of the test plants were sown separately for each species. […] The test period extended over 2 to 4 weeks. During this time, the plants were tended, and their response to the individual treatments was evaluated. […]
Recorded measurements of pest or weed control at 31 g/ha, one per entry
Reply with the number and its unit after it.

Here's what some known entries look like.
>>> val("CC1(C)c2cccnc2C(O)=C(c2ccc(Cl)c(N(C3CC3)S(C)(=O)=O)c2Cl)S1(=O)=O [I-25]")
"95%"
>>> val("CN(C)S(=O)(=O)Oc1c(Cl)ccc(C2=C(O)c3ncccc3C(C)(C)S2(=O)=O)c1Cl [I-23]")
"75%"
>>> val("CS(=O)(=O)Nc1ccc(Cl)c(C2=C(O)c3ncccc3CS2(=O)=O)c1Cl [I-5]")
"75%"

Shift focus to the following entry.
input: Output measured pest or weed control at 31 g/ha for this item: CC(C)N(c1c(Cl)ccc(C2=C(O)c3ncccc3C(C)(C)S2(=O)=O)c1Cl)S(C)(=O)=O [I-11]
output: 90%

* * *

# System: Zea mays
# experiment: Greenhouse post-emergence herbicidal activity on crop ZEAMX (corn, maize)
# Assay type: in vivo
# Set-up: key: 0 = no damage/normal growth, 100 = no emergence or complete destruction
# cond: ZEAMX (corn, crop), 0.031 kg/ha, scale 0 to 100
Recorded measurements of Herbicidal activity, one per entry

>>> val("CCS(=O)(=O)N(C)c1c(Cl)ccc(C2=C(O)c3ncccc3CS2(=O)=O)c1Cl")
0
>>> val("CCN(c1c(Cl)ccc(C2=C(O)c3ncccc3C(C)(C)S2(=O)=O)c1Cl)S(C)(=O)=O")
5
>>> val("CC(C)N(c1c(Cl)ccc(C2=C(O)c3ncccc3C(C)(C)S2(=O)=O)c1Cl)S(C)(=O)=O")
0

Shift focus to the following entry.
input: Output measured Herbicidal activity for this item: CS(=O)(=O)Nc1ccc(Cl)c(C2=C(O)c3ncccc3CS2(=O)=O)c1Cl
output: 0

* * *

# Test system: Amaranthus retroflexus
# experiment: Greenhouse post-emergence herbicidal activity, AMARE
# Format: in vivo
# cond: AMARE, 0.125 kg/ha, scale 0 to 100
Recorded measurements of pest or weed control at 125 g/ha, one per entry
The reply should contain only the number, in %.

Here's what some known entries look like.
>>> val("CS(=O)(=O)Nc1c(Cl)ccc(C2=C(O)c3ncccc3CS2(=O)=O)c1Cl [I-1]")
75
>>> val("CS(=O)(=O)N(c1c(Cl)ccc(C2=C(O)c3ncccc3CS2(=O)=O)c1Cl)C1CC1 [I-24]")
85
>>> val("Cc1c(C2=C(O)c3ncccc3C(C)(C)S2(=O)=O)ccc(Cl)c1N(C)S(C)(=O)=O [I-29]")
98

input: Output measured pest or weed control at 125 g/ha for this item: CC(C)N(c1c(Cl)ccc(C2=C(O)c3ncccc3CS2(=O)=O)c1Cl)S(C)(=O)=O [I-10]
output: 70

input: Output measured pest or weed control at 125 g/ha for this item: CN(c1cccc(C2=C(O)c3ncccc3C(C)(C)S2(=O)=O)c1Cl)S(C)(=O)=O [I-17]
output: 100

input: Output measured pest or weed control at 125 g/ha for this item: CN(c1ccc(Cl)c(C2=C(O)c3ncccc3CS2(=O)=O)c1Cl)S(C)(=O)=O [I-4]
output: 98

input: Output measured pest or weed control at 125 g/ha for this item: CC1(C)c2cccnc2C(O)=C(c2c(Cl)ccc(NS(C)(=O)=O)c2Cl)S1(=O)=O [I-6]
output: 98

input: Output measured pest or weed control at 125 g/ha for this item: CC1(C)c2cccnc2C(O)=C(c2ccc(Cl)c(N(C3CC3)S(C)(=O)=O)c2Cl)S1(=O)=O [I-25]
output: 98
